Hello, the source for this data is PubChem BioAssay (NCI), in case you need it.

Answer each item with its documented growth inhibition.
Protocol Summary: NCI Yeast Anticancer Drug Screen. Data for the bub3 strain (AID 167)
Experimental Conditions: S. cerevisiae bub3 mutant strain, at 33.0 µM, stronger effect = higher value
The panel holds about 79,000 compounds, 15% with a hit somewhere; the sample as a whole holds those more often.
Your answer should be a plain number; it is taken to be in %.

// field: growth inhibition; key: `O=c1[nH]c2ccccc2c2nc3ccccc3n12` ; value = 60

// field: growth inhibition; key: `COc1ccc(N=N/C(=N\NC(=O)c2cc(Br)ccc2O)c2ccc(N(CCC#N)CCC#N)cc2OC)cc1` ; value = 49

// field: growth inhibition; key: `CC(C)(O)c1ccccc1C(c1ccccc1)c1ccccc1` ; value = -2

// field: growth inhibition; key: `CNc1ccc(Cc2c[nH]c3ccccc23)cc1` ; value = 7

// field: growth inhibition; key: `Cc1cc(Cl)ccc1NC(=O)/C(Cl)=C1/Sc2ccccc2NC1=O` ; value = -4

// field: growth inhibition; key: `Nc1ccc(S(=O)(=O)Nc2ccc(Nc3c4ccccc4nc4ccccc34)cc2)cc1` ; value = 4

// field: growth inhibition; key: CN(C)CC1CCCc2ccccc2C1=O (stereo not given) ; value = 28

// field: growth inhibition; key: `S=c1cn[nH]c2ccc(Br)cc12` ; value = 52

// field: growth inhibition; key: `CN(CC(=O)O)c1ccc(/C=C/c2ccnc3ccccc23)cc1` ; value = -8

// field: growth inhibition; key: `CC[C@@]1(OC(=O)CCC(=O)O)C(=O)OCc2c1cc1n(c2=O)Cc2cc3ccccc3nc2-1` ; value = 62

// field: growth inhibition; key: `O=C(/C=N/O)Nc1cc(Cl)c(Cl)cc1Cl` ; value = 8

// field: growth inhibition; key: `Cc1cc(Cl)nc2nc(Cl)c(N)cc12` ; value = 1

// field: growth inhibition; key: CC1=CCC(C(C)(C)c2ccc(O)cc2)CC1 (stereo not given) ; value = 96

// field: growth inhibition; key: `NC(N)=N/N=C/c1cc(Cl)cc(Cl)c1O` ; value = 49

// field: growth inhibition; key: `CC(=O)C1=C(C)O/C(=C/c2cccc(Cl)c2)C1=O` ; value = 26

// field: growth inhibition; key: CCN(CC)CC(O)C1CCC(c2ccccc2)CC1 (stereo not given) ; value = 64

// field: growth inhibition; key: CC(=O)[C@]1(O)Cc2c(O)c3c(c(O)c2[C@@H](OC2CC(N)C(O)C(C)O2)C1)C(=O)c1c(OCc2ccccc2)cccc1C3=O (stereo not given in full) ; value = 18

// field: growth inhibition; key: `CO[C@@]12[C@H](COC(N)=O)C3=C(C(=O)C(C)=C(N)C3=O)N1C[C@@H]1N[C@@H]12` ; value = 26

// field: growth inhibition; key: `O=C(N/N=C\c1c(Cl)cccc1Cl)N/N=C/c1c(Cl)cccc1Cl` ; value = 0

// field: growth inhibition; key: `O=Nn1c2ccccc2c2ccccc21` ; value = -3

// field: growth inhibition; key: `CCN1/C(=C/c2ccc3ccccc3[n+]2CC)C=Cc2ccccc21` ; value = 98

// field: growth inhibition; key: `S=C1SCN(CCc2ccccc2)CN1CCc1ccccc1` ; value = 53

// field: growth inhibition; key: `C/C(=N\NC(=S)NC1CCCC1)c1ccccn1` ; value = 99

// field: growth inhibition; key: `O=C1C=CC(=O)N1c1ccc(N2C(=O)C=CC2=O)cc1` ; value = 100

// field: growth inhibition; key: `Oc1ccccc1N=Cc1ccc(Cl)cc1` ; value = 78

// field: growth inhibition; key: `O=NN(CCCl)C(=O)NCCCl` ; value = -6

// field: growth inhibition; key: `N#C/C(=C1C=C(Br)/C(=N\O)C=C\1Cl)c1cccc2ccccc12` ; value = 93

// field: growth inhibition; key: `OCCNCCOc1ccc(/C(=C(/Cl)c2ccccc2)c2ccccc2)cc1` ; value = 99

// field: growth inhibition; key: `CCNc1ccc2c(c1)C(=O)N(OS(C)(=O)=O)C2=O` ; value = 8

// field: growth inhibition; key: `COc1cc(/C=C/c2sc3ccccc3[n+]2C)ccc1N(C)C` ; value = 68
